Every entry's value here was drawn from the supplement of paper PMC9112550.

# Tested on: Escherichia coli TOP10
# METHOD SUMMARY: shrunken log2 fold change of peptide-encoding DNA abundance (4.5 h post-induction vs induction); higher = less antimicrobial activity (less host growth inhibition)
# COND: time post-induction: 4.5 h; library: site-saturation at positions 5, 18, 19, 20
OBSERVABLE: shrunken log2 fold change
Provide a numeric answer; units are not to be included.

> print(dat)
          ordered.residues       target.under.test  observed.value
1  RRIRTRPPRLPRPRPRPGDCPRP  Escherichia coli TOP10          -0.195
2  RRIRWRPPRLPRPRPRPQDLPRP  Escherichia coli TOP10           0.107
3  RRIRRRPPRLPRPRPRPHCNPRP  Escherichia coli TOP10          -0.135
4  RRIRNRPPRLPRPRPRPRNYPRP  Escherichia coli TOP10          -0.123
5  RRIRSRPPRLPRPRPRPVFMPRP  Escherichia coli TOP10          -0.236
6  RRIRIRPPRLPRPRPRPFCAPRP  Escherichia coli TOP10          -0.088
7  RRIRERPPRLPRPRPRPWSMPRP  Escherichia coli TOP10          -0.707

What value of shrunken log2 fold change has been recorded for this entry: RRIRPRPPRLPRPRPRPDVGPRP
0.181

---

# Test system: Escherichia coli TOP10
# METHOD SUMMARY: shrunken log2 fold change of peptide-encoding DNA abundance (4.5 h post-induction vs induction); higher = less antimicrobial activity (less host growth inhibition)
# COND: time post-induction: 4.5 h; library: site-saturation at positions 5, 18, 19, 20
In this section we review reported shrunken log2 fold change values for a set of sequences.
// return just the number, without any unit appended

> print(dat)
          ordered.residues       target.under.test  observed.value
1  RRIRMRPPRLPRPRPRPHEAPRP  Escherichia coli TOP10          0.0628
2  RRIRNRPPRLPRPRPRPVQTPRP  Escherichia coli TOP10            0.12
3  RRIRIRPPRLPRPRPRPHPGPRP  Escherichia coli TOP10          -0.571
4  RRIRNRPPRLPRPRPRPDSPPRP  Escherichia coli TOP10         -0.0758
5  RRIRRRPPRLPRPRPRPDCTPRP  Escherichia coli TOP10           0.252

Notebook entry, Escherichia coli TOP10 assay: shrunken log2 fold change of RRIRQRPPRLPRPRPRPFSLPRP = ?
0.14

// next record RRIRRRPPRLPRPRPRPYMSPRP
-0.054

Proceed to RRIRQRPPRLPRPRPRPDEFPRP
-0.0132

Consider next the sequence RRIRKRPPRLPRPRPRPLKQPRP in the same way.
0.146

Record: RRIRPRPPRLPRPRPRPPNEPRP
-0.0989

Also, RRIRCRPPRLPRPRPRPEMKPRP please.
0.0473

For RRIRMRPPRLPRPRPRPFADPRP then?
2.11

Moving on to the next sequence: RRIRTRPPRLPRPRPRPDSNPRP
0.0255

Further, for RRIRGRPPRLPRPRPRPYKMPRP ?
-0.234

---

# Test system: Escherichia coli TOP10;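 note: peptides expressed intracellularly from a pBAD plasmid library in pooled LB shake-flask culture, induced with 0.3% L-arabinose, DNA abundance read by NGS, three biological replicates, DESeq2 with apeglm shrinkage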
# METHOD SUMMARY: shrunken log2 fold change of peptide-encoding DNA abundance (4.5 h post-induction vs induction); higher = less antimicrobial activity (less host growth inhibition)
# COND: time post-induction: 4.5 h; library: site-saturation at positions 5, 18, 19, 20
OBSERVABLE: shrunken log2 fold change
Give only the figure.

Solved entries (count: 2):
> print(dat)
          ordered.residues                 observable  observed.value
1  RRIRCRPPRLPRPRPRPKSKPRP  shrunken log2 fold change          -0.338
2  RRIRNRPPRLPRPRPRPFFWPRP  shrunken log2 fold change          0.0463

Please find the next sequence below.
Name the reported shrunken log2 fold change value associated with the sequence RRIRIRPPRLPRPRPRPGCVPRP
-0.00757
